Could you please report measured NUDT7 for the items listed next?
Target: NUDT7 (Homo sapiens, UniProt P0C024)
Construct: residues 14-235, E. coli, pNIC28-Bsa4, N-terminal His6 tag removed by TEV, construct 26672 Da
Sequence (P0C024 14-235): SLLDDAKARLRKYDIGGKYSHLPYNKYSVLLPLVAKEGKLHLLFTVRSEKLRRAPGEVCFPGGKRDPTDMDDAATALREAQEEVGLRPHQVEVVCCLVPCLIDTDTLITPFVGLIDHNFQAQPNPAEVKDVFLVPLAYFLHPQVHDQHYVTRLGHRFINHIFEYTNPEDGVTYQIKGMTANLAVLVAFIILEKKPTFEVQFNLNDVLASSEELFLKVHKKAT
Set-up: Intact protein LC/MS covalent labelling, fragments in pools of five, 200 uM each, 4 °C
Conditions: 24 h, 4 °C, pool of five; 200 µM; covalent
Numbers only.

// known answers, use as guide
For O=C1CN(C(=O)CCl)CCN1 , what is its reported NUDT7?
0

For Cc1cccc([N+](=O)[O-])c1NC(=O)CCl , what is its reported NUDT7?
0.22

For CC1CCC(N(C(=O)CCl)C2CC2)CC1 (centres unmarked) , what is its reported NUDT7?
0.13

For C=CC(=O)N1CCc2ccccc21 , what is its reported NUDT7?
0

For N#CC1(NC(=O)CCl)CCCCCC1 , what is its reported NUDT7?
0

Here are 7 molecules. What values of NUDT7 were reported for them?
1. N#Cc1ccc(C(=O)NNC(=O)CCl)cc1
2. O=C(CCl)Nc1ccccc1N1CCCCC1
3. O=C(CCl)Nc1c(F)cc(F)cc1Br
4. Cl.O=C(CCl)N1CCN(C2CCS(=O)(=O)C2)CC1 (centres unmarked)
5. O=C(CCl)N1CCN(S(=O)(=O)c2ccc(Cl)s2)CC1
6. CCN(C(=O)CCl)c1nc2ccccc2s1
7. O=C(CCl)N1CCCC(C(F)(F)F)C1 (centres unmarked)

[0, 0, 0.1, 0, 0.15, 0.33, 0.14]

Here are 2 molecules. What values of NUDT7 were reported for them?
1. Cc1cccc(C(C)C)c1NC(=O)CCl
2. C#Cc1cccc(NC(=O)NC(=O)CCl)c1

1. 0
2. 0.13

Here are 3 molecules. What values of NUDT7 were reported for them?
1. CC(NC(=O)CCl)c1cccs1 (centres unmarked)
2. Cc1ccc(CN(C)C(=O)CCl)o1
3. C=CC(=O)N1CC(OC(=O)Nc2cccc(F)c2)C1

[0.16, 0.05, 0]
